B1: C8orf76 (parent)
chain: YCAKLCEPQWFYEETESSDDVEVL

Variants of: B1
Assay: protein stability index of a GFP-peptide fusion (GPS, HEK-293T) (PSI 1-6); higher = more stable;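 further: lentivirally expressed fusions sorted by FACS into six bins by GFP to DsRed ratio, PSI derived from sequencing read proportions per bin multiplied by bin number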
Conditions: c terminus: a fixed tail appended
Rule: satisfied for protein stability index not less than 2, not satisfied for anything less.

Previously resolved entries follow.
F11L    satisfied
C6D    satisfied
Y1V    satisfied

[Q] Tell me whether protein stability index is at least 2 here: V23S
[A] satisfied
